tgt: T1, human BLyS (full length, arginine to histidine at position 132) on CHO-K1 cells (human, UniProt Q9Y275 1-285)
T1 construct: also called hBLyS; CHO-K1 hBLyS
protocol_summary: flow cytometry, CHO-K1 hBLyS cells, antibody 0.107 nM
endpoint_label: MFI (MFI)
The reply should contain only the number, in MFI.

INSERT INTO measurements (binder, endpoint_label, value_observed) VALUES
  ('89A2G5E7 (antibody, V domains shown, Mouse hybridoma monoclonal antibody purified on Protein G) VH: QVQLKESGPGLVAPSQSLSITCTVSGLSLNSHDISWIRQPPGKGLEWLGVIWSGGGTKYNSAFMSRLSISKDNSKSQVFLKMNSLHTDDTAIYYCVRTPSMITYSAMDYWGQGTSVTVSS VL: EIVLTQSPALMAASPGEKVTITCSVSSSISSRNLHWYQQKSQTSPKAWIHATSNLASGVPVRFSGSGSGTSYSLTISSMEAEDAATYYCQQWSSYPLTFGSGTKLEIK', 'MFI', 92.1),
  ('20D1B6E9E5 (antibody, V domains shown, Mouse hybridoma monoclonal antibody purified on Protein G) VH: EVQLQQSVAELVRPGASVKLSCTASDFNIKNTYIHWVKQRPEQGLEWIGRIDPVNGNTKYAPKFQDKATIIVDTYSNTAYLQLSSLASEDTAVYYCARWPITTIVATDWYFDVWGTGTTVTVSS VL: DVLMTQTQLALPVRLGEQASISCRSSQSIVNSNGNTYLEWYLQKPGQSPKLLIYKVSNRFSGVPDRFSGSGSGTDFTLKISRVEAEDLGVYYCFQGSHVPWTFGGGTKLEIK', 'MFI', 194),
  ('97A3C2H4 (antibody, V domains shown, Mouse hybridoma monoclonal antibody purified on Protein G) VH: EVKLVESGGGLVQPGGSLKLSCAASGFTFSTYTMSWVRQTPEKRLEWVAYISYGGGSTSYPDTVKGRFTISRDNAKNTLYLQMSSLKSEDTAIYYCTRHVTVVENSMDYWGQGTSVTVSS VL: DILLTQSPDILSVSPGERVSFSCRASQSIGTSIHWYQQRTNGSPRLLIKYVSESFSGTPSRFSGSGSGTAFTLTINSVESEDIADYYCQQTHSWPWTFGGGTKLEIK', 'MFI', 158),
  ('93C6F10D3 (antibody, V domains shown, Mouse hybridoma monoclonal antibody purified on Protein G) VH: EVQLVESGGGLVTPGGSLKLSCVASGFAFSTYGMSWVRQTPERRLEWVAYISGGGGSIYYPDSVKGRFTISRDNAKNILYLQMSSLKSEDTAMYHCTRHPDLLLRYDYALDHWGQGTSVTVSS VL: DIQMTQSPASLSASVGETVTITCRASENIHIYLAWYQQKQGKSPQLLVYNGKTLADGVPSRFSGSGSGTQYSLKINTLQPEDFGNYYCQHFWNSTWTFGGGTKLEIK', 'MFI', 175),
  ('78C11D2D12 (antibody, V domains shown, Mouse hybridoma monoclonal antibody purified on Protein G) VH: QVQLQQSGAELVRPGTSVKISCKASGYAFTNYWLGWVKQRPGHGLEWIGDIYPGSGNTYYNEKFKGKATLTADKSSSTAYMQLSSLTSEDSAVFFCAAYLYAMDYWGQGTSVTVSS VL: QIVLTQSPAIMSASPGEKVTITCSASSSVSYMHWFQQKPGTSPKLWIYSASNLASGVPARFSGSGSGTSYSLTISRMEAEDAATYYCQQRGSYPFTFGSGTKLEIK', 'MFI', 132),
  ('8E7D9C7F5 (antibody, V domains shown, Mouse hybridoma monoclonal antibody purified on Protein G) VH: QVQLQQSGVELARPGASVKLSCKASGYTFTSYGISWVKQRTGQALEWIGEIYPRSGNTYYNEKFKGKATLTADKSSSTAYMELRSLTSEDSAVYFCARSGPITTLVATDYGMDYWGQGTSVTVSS VL: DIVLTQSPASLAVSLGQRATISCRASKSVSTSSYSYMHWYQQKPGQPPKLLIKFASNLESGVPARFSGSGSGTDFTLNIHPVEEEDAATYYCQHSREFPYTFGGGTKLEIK', 'MFI', 282),
  ('2-1G11 (antibody, V domains shown, From a human naive scFv phage library; also called human BLyS antibody 2-1G11) VH: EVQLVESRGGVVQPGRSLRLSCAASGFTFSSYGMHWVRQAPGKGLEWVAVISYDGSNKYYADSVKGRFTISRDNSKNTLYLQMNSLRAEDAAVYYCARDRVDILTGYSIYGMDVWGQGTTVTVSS VL: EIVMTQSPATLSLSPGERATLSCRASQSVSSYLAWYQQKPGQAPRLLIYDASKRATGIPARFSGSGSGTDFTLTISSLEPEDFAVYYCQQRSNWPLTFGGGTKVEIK', 'MFI', 403),
  ('111D10D6G3 (antibody, V domains shown, Mouse hybridoma monoclonal antibody purified on Protein G) VH: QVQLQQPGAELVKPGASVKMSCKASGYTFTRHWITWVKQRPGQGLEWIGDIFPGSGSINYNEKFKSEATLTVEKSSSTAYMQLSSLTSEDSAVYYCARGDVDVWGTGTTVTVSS VL: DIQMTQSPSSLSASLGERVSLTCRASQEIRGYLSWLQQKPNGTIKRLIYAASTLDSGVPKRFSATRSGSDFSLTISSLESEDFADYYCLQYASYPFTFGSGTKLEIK', 'MFI', 150);

Tell me the measured MFI of L9G7 (antibody, V domains shown, From a human naive scFv phage library; also called human BLyS antibody L9G7) VH: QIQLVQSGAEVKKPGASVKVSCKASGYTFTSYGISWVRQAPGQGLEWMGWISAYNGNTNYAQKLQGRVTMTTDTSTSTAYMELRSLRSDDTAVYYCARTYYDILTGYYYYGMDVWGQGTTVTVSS VL: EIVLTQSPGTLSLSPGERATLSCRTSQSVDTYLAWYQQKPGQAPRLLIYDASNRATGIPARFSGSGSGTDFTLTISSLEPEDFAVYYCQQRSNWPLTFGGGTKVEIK , please.
226

Tell me the measured MFI of 35E6F7C3 (antibody, V domains shown, Mouse hybridoma monoclonal antibody purified on Protein G) VH: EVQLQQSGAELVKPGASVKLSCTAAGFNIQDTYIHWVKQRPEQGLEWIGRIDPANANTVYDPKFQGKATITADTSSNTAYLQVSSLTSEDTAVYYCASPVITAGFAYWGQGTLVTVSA VL: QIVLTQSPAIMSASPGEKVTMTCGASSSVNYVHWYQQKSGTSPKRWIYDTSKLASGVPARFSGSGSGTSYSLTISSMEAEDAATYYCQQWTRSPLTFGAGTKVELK , please.
110
